Provenance of the data: patent US20240116893A1

MEASURED_TARGET: IRAK1 (Homo sapiens (Human))
Sequence (P51617 whole entry): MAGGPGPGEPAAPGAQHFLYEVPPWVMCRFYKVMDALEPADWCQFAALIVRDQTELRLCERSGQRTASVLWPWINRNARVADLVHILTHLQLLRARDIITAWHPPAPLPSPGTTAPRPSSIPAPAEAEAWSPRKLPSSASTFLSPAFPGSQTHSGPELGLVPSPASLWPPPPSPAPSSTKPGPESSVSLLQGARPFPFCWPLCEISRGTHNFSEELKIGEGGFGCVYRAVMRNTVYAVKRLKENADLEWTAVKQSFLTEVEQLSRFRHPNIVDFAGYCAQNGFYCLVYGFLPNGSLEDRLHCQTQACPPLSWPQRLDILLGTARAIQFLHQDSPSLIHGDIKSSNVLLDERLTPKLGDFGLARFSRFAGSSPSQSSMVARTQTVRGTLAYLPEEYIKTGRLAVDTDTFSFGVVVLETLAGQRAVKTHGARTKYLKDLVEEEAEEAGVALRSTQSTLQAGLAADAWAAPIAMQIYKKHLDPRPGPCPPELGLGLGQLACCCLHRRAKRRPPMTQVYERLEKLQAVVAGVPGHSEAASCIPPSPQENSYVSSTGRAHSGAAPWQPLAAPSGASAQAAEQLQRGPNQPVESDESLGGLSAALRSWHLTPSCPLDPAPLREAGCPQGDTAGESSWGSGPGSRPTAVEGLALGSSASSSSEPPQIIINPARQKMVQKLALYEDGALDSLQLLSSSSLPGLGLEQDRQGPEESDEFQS
MEASURE: IC50

| ITEM_SMILES | MEASURE | MEAS_VALUE |
| --- | --- | --- |
| CCCn1/c(=N/C(=O)c2cccc(C(N)=O)c2)[nH]c2ccc(CN3CCCCC3)cc21 | IC50 | 264 nM |

###

MEASURED_TARGET: IRAK4 (Homo sapiens (Human))
TEST_METHOD_NOTES: IRAK4 kinase inhibition IC50 (TABLE 1; FIG. 1B selectivity screening)
Assay type: biochemical
MEASUREMENT_CONDITIONS: read-out: IC50 (IRAK4)

| COMPOUND | VALUE_UNIT | IC50 |
| --- | --- | --- |
| NC(=O)c1cccc(C(=O)/N=c2\[nH]c3cc(CN4CCCCC4)ccc3n2C2CCC(O)CC2)c1 (stereo not drawn) | nM | 8.5 |
| CCCn1/c(=N/C(=O)c2cccc(C(N)=O)c2)[nH]c2ccc(CN3CCCCC3)cc21 | nM | 2500 |
| CCCn1/c(=N/C(=O)c2cccc(C(N)=O)c2)[nH]c2ccc(CO)cc21 | nM | 48 |

###

MEASURED_TARGET: CSNK1G2 (Homo sapiens (Human))
Sequence (P78368 whole entry): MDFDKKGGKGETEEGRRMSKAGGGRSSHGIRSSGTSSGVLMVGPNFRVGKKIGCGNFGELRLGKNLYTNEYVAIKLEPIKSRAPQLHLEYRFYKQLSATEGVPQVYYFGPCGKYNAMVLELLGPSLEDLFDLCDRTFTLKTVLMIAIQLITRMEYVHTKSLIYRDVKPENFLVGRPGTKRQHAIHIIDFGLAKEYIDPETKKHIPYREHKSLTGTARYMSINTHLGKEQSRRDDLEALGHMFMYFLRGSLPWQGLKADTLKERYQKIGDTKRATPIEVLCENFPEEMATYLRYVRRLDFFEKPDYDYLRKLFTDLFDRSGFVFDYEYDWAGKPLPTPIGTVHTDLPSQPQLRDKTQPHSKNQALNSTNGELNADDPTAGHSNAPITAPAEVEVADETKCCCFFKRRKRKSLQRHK
MEASURE: IC50

| ITEM_SMILES | MEAS_VALUE |
| --- | --- |
| CCCn1/c(=N/C(=O)c2cccc(C(N)=O)c2)[nH]c2ccc(CN3CCCCC3)cc21 | 809 nM |

###

MEASURED_TARGET: CLK2 (Homo sapiens (Human), UniProt P49760)
Sequence (P49760 whole entry): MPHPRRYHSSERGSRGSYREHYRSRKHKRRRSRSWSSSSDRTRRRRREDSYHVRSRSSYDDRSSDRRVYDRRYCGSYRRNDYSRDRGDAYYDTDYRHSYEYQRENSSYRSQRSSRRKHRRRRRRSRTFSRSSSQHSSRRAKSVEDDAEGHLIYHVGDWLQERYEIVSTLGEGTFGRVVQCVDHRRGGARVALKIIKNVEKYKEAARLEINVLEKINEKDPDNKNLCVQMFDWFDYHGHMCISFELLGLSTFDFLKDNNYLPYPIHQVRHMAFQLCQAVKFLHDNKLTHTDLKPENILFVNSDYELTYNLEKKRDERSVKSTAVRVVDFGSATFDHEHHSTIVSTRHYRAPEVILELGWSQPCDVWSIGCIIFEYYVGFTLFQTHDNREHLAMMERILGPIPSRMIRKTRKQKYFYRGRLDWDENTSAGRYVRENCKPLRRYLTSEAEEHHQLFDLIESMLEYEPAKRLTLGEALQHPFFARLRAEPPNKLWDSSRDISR
pIC50: −log10 of the molar value.

| MOLECULE | pIC50 |
| --- | --- |
| CCCn1/c(=N/C(=O)c2cccc(C(N)=O)c2)[nH]c2ccc(CN3CCCCC3)cc21 [Compound 5] | 7.54 |

###

MEASURED_TARGET: MAP4K5 (Homo sapiens (Human), UniProt Q9Y4K4)
Sequence (Q9Y4K4 whole entry): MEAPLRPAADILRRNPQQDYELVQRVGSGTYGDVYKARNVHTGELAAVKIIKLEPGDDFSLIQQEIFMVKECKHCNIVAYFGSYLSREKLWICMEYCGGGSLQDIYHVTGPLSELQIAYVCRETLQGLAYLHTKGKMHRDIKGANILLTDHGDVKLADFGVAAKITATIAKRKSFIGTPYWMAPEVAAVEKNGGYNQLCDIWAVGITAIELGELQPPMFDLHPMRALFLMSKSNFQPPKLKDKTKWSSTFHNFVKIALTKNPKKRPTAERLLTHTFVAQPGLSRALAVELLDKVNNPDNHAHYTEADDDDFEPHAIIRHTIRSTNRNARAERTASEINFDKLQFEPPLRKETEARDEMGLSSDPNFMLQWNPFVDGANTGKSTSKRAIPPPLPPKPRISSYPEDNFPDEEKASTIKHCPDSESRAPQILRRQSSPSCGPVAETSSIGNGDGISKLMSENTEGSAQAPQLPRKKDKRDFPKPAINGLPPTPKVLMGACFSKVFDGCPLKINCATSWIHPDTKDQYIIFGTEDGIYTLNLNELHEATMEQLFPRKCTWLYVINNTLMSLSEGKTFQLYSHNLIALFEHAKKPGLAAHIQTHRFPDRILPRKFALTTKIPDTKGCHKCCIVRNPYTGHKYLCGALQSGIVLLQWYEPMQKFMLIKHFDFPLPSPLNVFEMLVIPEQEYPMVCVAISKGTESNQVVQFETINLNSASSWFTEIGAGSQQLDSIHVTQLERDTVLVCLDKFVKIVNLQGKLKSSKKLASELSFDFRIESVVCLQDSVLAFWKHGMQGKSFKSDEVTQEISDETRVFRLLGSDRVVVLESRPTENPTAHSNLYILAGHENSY
MEASURE: IC50

| COMPOUND | MEASURED_TARGET | MEAS_VALUE |
| --- | --- | --- |
| CCCn1/c(=N/C(=O)c2cccc(C(N)=O)c2)[nH]c2ccc(CN3CCCCC3)cc21 [Compound 5] | MAP4K5 (Homo sapiens (Human), UniProt Q9Y4K4) | 124 nM |

###

MEASURED_TARGET: GCK (Homo sapiens (Human), UniProt Q12851)
Sequence (Q12851 whole entry): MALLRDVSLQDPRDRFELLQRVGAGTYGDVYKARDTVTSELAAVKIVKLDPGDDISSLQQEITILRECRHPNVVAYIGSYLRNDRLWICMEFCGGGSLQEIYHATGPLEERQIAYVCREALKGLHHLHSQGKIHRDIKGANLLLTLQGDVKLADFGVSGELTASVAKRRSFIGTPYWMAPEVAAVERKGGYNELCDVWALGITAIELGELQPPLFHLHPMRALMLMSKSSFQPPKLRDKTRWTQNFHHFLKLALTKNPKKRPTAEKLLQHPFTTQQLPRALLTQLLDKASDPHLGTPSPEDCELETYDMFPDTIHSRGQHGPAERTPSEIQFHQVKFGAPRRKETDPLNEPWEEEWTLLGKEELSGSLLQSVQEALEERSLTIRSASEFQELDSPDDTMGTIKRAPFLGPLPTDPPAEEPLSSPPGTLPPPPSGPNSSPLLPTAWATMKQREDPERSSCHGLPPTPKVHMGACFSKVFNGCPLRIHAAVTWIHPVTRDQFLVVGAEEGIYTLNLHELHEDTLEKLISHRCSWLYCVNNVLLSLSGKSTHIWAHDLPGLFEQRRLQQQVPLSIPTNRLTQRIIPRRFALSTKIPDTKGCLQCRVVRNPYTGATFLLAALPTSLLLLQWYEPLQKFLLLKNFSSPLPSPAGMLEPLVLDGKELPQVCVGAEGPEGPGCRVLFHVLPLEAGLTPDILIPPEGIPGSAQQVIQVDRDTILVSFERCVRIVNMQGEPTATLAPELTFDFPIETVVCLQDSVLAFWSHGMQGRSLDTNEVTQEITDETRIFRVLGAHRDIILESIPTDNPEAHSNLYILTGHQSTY

| COMPOUND | IC50 [nM] |
| --- | --- |
| CCCn1/c(=N/C(=O)c2cccc(C(N)=O)c2)[nH]c2ccc(CN3CCCCC3)cc21 [Compound 5] | 33 |

###

MEASURED_TARGET: IRAK4 (Homo sapiens (Human), UniProt Q9NWZ3)
Sequence (Q9NWZ3 whole entry): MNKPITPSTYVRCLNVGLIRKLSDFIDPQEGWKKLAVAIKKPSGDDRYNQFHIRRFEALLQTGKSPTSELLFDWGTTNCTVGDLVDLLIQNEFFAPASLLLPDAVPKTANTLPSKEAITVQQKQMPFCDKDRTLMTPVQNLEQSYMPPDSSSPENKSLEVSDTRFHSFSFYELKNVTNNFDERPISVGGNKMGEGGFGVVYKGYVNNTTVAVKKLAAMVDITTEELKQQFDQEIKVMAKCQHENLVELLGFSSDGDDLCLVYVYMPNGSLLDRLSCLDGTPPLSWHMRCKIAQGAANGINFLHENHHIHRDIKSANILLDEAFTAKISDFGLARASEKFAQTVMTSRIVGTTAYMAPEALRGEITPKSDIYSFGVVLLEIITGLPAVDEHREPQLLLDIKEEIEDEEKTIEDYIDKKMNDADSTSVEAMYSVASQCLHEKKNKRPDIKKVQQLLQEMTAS
TEST_METHOD_NOTES: IRAK4 kinase inhibition IC50 (TABLE 1; FIG. 1B selectivity screening)
Type: biochemical
MEASURE: IC50 (nM)

| ITEM_SMILES | MEASURE | VALUE_UNIT | MEAS_VALUE |
| --- | --- | --- | --- |
| NC(=O)c1cccc(C(=O)/N=c2\[nH]c3ccc(CO)cc3n2[C@H]2CC[C@H](O)CC2)c1 | IC50 | nM | 8.2 |

###

MEASURED_TARGET: TAK1 (Homo sapiens (Human), UniProt O43318)
Sequence (O43318 31-303): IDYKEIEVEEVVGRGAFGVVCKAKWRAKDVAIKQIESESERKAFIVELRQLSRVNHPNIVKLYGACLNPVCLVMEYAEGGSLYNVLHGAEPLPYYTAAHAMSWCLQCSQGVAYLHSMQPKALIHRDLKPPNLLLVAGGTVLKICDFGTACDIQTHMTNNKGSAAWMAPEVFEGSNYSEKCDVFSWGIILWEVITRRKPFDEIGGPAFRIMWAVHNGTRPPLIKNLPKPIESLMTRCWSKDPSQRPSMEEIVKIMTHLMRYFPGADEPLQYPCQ
Sequence (Q15750 468-497 partner): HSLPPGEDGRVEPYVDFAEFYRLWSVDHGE
TEST_METHOD_NOTES: TAK1 kinase inhibition IC50 (TABLE 1; FIG. 1B selectivity screening)
Type: biochemical
MEASUREMENT_CONDITIONS: selectivity screening, FIG. 1B; read-out: TAK1 inhibition IC50

| ITEM_SMILES | MEASURED_TARGET | IC50 / nM |
| --- | --- | --- |
| CCCn1/c(=N/C(=O)c2cccc(C(N)=O)c2)[nH]c2ccc(CN3CCCCC3)cc21 | TAK1 (Homo sapiens (Human), UniProt O43318) | 2.5 |

###

MEASURED_TARGET: NUAK (Homo sapiens (Human))
Sequence (O60285 whole entry): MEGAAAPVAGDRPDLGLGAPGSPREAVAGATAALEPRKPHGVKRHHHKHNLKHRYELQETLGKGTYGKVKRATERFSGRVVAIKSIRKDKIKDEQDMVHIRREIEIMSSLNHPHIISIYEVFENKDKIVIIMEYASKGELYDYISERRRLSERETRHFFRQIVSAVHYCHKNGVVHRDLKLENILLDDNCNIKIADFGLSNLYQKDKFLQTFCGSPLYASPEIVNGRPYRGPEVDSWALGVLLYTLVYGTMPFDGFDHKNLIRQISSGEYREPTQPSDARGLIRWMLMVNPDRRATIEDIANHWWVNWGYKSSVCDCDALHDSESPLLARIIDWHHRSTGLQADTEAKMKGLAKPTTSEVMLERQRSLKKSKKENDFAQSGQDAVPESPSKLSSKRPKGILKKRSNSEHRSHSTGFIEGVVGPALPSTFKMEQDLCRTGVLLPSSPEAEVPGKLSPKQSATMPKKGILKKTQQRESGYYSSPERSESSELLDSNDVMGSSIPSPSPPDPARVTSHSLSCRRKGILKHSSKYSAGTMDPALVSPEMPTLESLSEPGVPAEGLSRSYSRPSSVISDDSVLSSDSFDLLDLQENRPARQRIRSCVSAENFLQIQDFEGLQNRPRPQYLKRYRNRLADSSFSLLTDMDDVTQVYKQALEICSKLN
MEASURE: IC50

| MOLECULE | MEAS_VALUE |
| --- | --- |
| CCCn1/c(=N/C(=O)c2cccc(C(N)=O)c2)[nH]c2ccc(CN3CCCCC3)cc21 [Compound 5] | 270 nM |

###

TEST_METHOD_NOTES: Pharmacokinetics after oral gavage in rats (plasma and urine, LC-MS)
Assay type: in vivo, Sprague Dawley rats
MEASUREMENT_CONDITIONS: male, Sprague Dawley, rat, plasma; 50 mg/kg oral gavage

| ITEM_SMILES | VALUE_UNIT | Cmax |
| --- | --- | --- |
| CCCn1/c(=N/C(=O)c2cccc(C(N)=O)c2)[nH]c2ccc(CN3CCCCC3)cc21 | nM | 1890 |
